Where do these numbers come from? They come from paper PMC6238398.

- assayed.target: hStau1 dsRBD3-4 (Homo sapiens, UniProt O95793 182-360)
- Sequence (O95793 182-360): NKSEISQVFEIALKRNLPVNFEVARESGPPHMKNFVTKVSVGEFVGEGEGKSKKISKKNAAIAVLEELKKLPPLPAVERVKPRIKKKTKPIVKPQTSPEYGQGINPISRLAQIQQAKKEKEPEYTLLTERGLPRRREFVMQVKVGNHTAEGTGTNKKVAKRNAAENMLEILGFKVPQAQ
- experimental.protocol: fluorescence anisotropy; FA: 10 nM 5'-FAM RNA, 20 mM Hepes pH 7.5, 150 mM KCl, RT (19-21 C); EMSA: 1 uM RNA, same buffer, 45 min on ice
- cond: protein: recombinant; tags: untagged; chain copies: 2; label: 5'-6-FAM on sense strand; blunt, two G-U wobbles
measurement.kind: Kd
Field note: include the unit after the figure.

q: Look at this binder and give its reported Kd. ARF1 SBS (dsRNA) RNA 1: UGAGUGCCAGAAGCUGCCUC RNA 2: GAGGCAGUUUCUGGUACUCA
a: 14 nM
